Each recorded value in this set is attributed to patent US20250114463A1.

Target Desc: human GLP-1 receptor (human, UniProt P43220 24-463)
Assay Remarks: cell-based or functional assay
Bridges are numbered along the chain shown (N, C = ends). Where no end group is shown, it is not given here. [ ]: non-standard residue; d: D form. The star is where a group is joined. Acetyl(2-(4-imidazolyl)) = O=C(Cc1c[nH]cn1)*; Aib = CC(C)(N)C(=O)O
Measure: in vitro Activity Compared to Native Peptide (%), vs GLP-1

- Binder: "[Acetyl(2-(4-imidazolyl))]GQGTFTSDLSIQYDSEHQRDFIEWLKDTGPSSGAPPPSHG-NH2 [triple agonist of SEQ ID NO: 19]"
  Qual: "<"
  Observed Measurement: 0.1
- Binder: "H[Aib]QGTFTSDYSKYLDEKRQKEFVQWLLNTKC (bridge 16-20; not fully specified (C-terminus)) [triple agonist of SEQ ID NO: 58]"
  Qual: "="
  Observed Measurement: 39.1
- Binder: "H[Aib]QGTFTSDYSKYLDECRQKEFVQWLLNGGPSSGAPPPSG (bridge 16-20; not fully specified (C-terminus)) [triple agonist of SEQ ID NO: 37]"
  Qual: "="
  Observed Measurement: 236
- Binder: "[Acetyl(2-(4-imidazolyl))][Aib]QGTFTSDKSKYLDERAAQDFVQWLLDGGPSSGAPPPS (not fully specified (C-terminus)) [triple agonist of SEQ ID NO: 62]"
  Qual: "="
  Observed Measurement: 5.2
- Binder: "H[Aib]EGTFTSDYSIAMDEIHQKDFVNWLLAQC (bridge 16-20; not fully specified (C-terminus)) [triple agonist of SEQ ID NO: 53]"
  Qual: "="
  Observed Measurement: 161
- Binder: "H[Aib]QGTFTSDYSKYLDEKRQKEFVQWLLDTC (bridge 16-20; not fully specified (C-terminus)) [triple agonist of SEQ ID NO: 52]"
  Qual: "="
  Observed Measurement: 44.1
- Binder: "H[Aib]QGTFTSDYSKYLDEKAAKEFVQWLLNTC (bridge 16-20; not fully specified (C-terminus)) [triple agonist of SEQ ID NO: 29]"
  Qual: "="
  Observed Measurement: 38.5
- Binder: "H[Aib]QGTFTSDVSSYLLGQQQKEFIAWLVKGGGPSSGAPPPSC-NH2 [triple agonist of SEQ ID NO: 5]"
  Qual: "="
  Observed Measurement: 42.1
- Binder: "[Acetyl(2-(4-imidazolyl))][Aib]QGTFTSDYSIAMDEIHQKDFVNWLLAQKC (bridge 16-20; not fully specified (C-terminus)) [triple agonist of SEQ ID NO: 92]"
  Qual: "="
  Observed Measurement: 0.8
